tested on: HOP-62 NSCLC; assay: NCI tumour cell line growth inhibition, 48 h
Readout name: GI50

Recorded GI50, per entry:
get_value(item= `O[C@H]1CO[C@H]2[C@@H]1OC[C@@H]2Oc1ccc(Nc2ccnc(Nc3ccc(O[C@H]4CO[C@H]5[C@@H]4OC[C@@H]5O)c(Cl)c3)n2)cc1Cl` , readout=GI50) returns 1710 nM

Measured GI50, `C[C@@H]1CC[C@H]2C(COCCOCC3=C(C(F)(F)F)O[C@@H]4O[C@@]5(C)CC[C@H]6[C@H](C)CC[C@@H]3[C@@]46OO5)=C(C(F)(F)F)O[C@@H]3O[C@@]4(C)CC[C@@H]1[C@]32OO4` : > 24000 nM

Query `Cc1ccc(NC(=O)/C=C/c2ccccc2)c(C(N)=O)c1` yields GI50 of 11100 nM

GI50 reading for `CCN=C1C=CC(=C(c2ccc(N)cc2)c2ccc(N(CC)CC)c(C)c2)C=C1` : 316 nM

Next:
Looking up `COc1cc2nc(N3CCCC3)nc(NCC3CCCCC3)c2cc1OC` , I found its GI50 recorded as 1560 nM

GET /value?item= `O=C(/C(=C/c1ccc([N+](=O)[O-])cc1)c1ccccc1)c1ccccc1` &field=GI50 returns 2780 nM

Lab note: `CN(C)CCCN1c2ccccc2CCc2ccc(Cl)cc21` gave GI50 of 10800 nM

// `c1ccc2c(c1)c(NCCCCN1CCCCC1)cc1c3ccccc3c(NCCCCN3CCCCC3)cc21` : GI50 value = 10900 nM

###

tested on: SN12C renal; test: NCI tumour cell line growth inhibition, 48 h; in the data active = GI50 below about 0.43 µM; inactive = the rest
Permitted responses: 1 for active, -1 for inactive

q: Tell me the assay call for `CN(C)c1ccc2c(c1)Sc1cc(N(C)C)ccc1N2C(=O)c1ccccc1` please.
a: -1

Others:
q: Entry `C[C@@H]1CC[C@H]2C(COCCOCC3=C(C(F)(F)F)O[C@@H]4O[C@@]5(C)CC[C@H]6[C@H](C)CC[C@@H]3[C@@]46OO5)=C(C(F)(F)F)O[C@@H]3O[C@@]4(C)CC[C@@H]1[C@]32OO4` : call = ?
a: 1

q: Dear all, I need the recorded test outcome for `O=[N+]([O-])c1cccc(-c2nc3sccn3c2-c2ccnc(NCCCNS(=O)(=O)c3cccc(F)c3)n2)c1` , thank you.
a: -1

q: Which result was noted for this molecule in the test: `c1ccc2c(c1)c(NCCCCN1CCCCC1)cc1c3ccccc3c(NCCCCN3CCCCC3)cc21`
a: -1

q: Hey, what did the test say about `CN1CCN(Cc2ccc(NC(=O)c3cncc(C#Cc4cnc(N)c5ccncc45)c3)cc2C(F)(F)F)CC1` ?
a: -1

q: Hi team, can someone confirm the assay call for `C/C(=N\Nc1ccc2ccccc2n1)c1ccccn1` ?
a: 1

q: // param item: `Cc1cc2c3ccc(C)[n+](C)c3ccc2n1C` ; yields the recorded call
a: -1

q: GET /call?item= `C=CC(=O)Nc1cccc(C)c1Nc1cc(-c2cccnc2Cc2c(C)c(OC)cc(OC)c2C)ncn1` returns the recorded outcome of this test.
a: -1

q: Call for entry CCN1CCC(CCOC)(CN2c3ccccc3Sc3ccc(Cl)cc32)C1 (configuration not stated) :
a: -1

q: Could you kindly confirm the outcome this assay logged for `COc1cc2c(c(OC)c1OC)-c1ncc3cc(OC)c(OC)c(OC)c3c1C2` ?
a: -1

q: What call does the record list for `O=C1C(=O)c2c(nc3ccc(Cl)cn23)-c2ccccc21` ?
a: 1

q: Which result was noted for this molecule in the test: O=C(c1ccccc1)C(CN1CCOCC1)c1ccccc1 (configuration not stated)
a: -1

###

system: IGROV1 ovarian; assay: NCI tumour cell line growth inhibition, 48 h
// values below are reported TGI

// returns TGI for `CCOC(=O)CSc1nc(-c2ccccc2)c(C#N)c(=O)[nH]1` with IGROV1 ovarian; value = > 100 µM

Let me check: `C=Cc1c(C)c(OC)cc2c1Oc1ccc(OC)c(C)c1CC2` , system IGROV1 ovarian, measured TGI is > 100 µM

Here `Cc1ccc(Oc2ccc(C)cc2[N+](=O)[O-])cc1` was tested on IGROV1 ovarian, and its TGI came to > 100 µM

# value of TGI, IGROV1 ovarian, item `CN1CCN(Cc2ccc(NC(=O)c3cncc(C#Cc4cnc(N)c5ccncc45)c3)cc2C(F)(F)F)CC1` = 2.89 µM

TGI of `CCOC(=O)c1c(N2CCCC2)nsc1Nc1ccccc1` , assay on IGROV1 ovarian, is > 100 µM

The record that follows has no TGI shown yet.
Here COc1c2c(cc3oc(C)cc(=O)c13)OC(=N)C(C(N)=O)C2CC(=O)c1ccc(N)cc1 (stereo not given) was tested on IGROV1 ovarian, and its TGI came to > 100 µM

###

system: UO-31 renal; assay: NCI tumour cell line growth inhibition, 48 h
GI50 values for the compounds below.

Answered cases to consult:
Record summary for `Cc1cc(N/N=C/c2nc(-c3ccc(Br)cc3)oc2C)c2cc(Cl)ccc2n1` : reported GI50 = > 100 µM

Field GI50 (entry `CC(C)(C)c1ccc(OCCCCCCN2CCNCC2)cc1` ) reads 12.2 µM

Lab note: `C=C1CC[C@@H]2[C@](C)(COC(C)=O)[C@@H](O)CC[C@@]2(C)[C@@H]1COc1ccc2ccc(=O)oc2c1` gave GI50 of > 100 µM

Briefly, GI50 measured for `C=CC(=O)N1CCN(c2ccc3cccc(NC(=O)c4cnc(C)cn4)c3n2)CC1` : 0.351 µM

More entries:
According to the records, this compound `O=c1[nH]c2ccccc2nc1-c1c[nH]c2ccccc12` displays GI50 of 0.725 µM

GI50 for `COC(=O)Cn1c2c(c3c(O)cccc31)C(=O)c1ccccc1-2` is > 100 µM

The recorded GI50 for `Cc1ccc(NC(=O)/C=C/c2ccccc2)c(C(N)=O)c1` is 10.3 µM

###

system: OVCAR-4 ovarian; test: NCI tumour cell line growth inhibition, 48 h
We begin with a simple list: items and their reported TGI.

Lab book: TGI of `COc1cccc(/C=C2/Sc3scc(-c4ccccc4)[n+]3C2=O)c1O` noted as 74.4 µM

Sample `CC(=O)NC1=C(OS(=O)(=O)c2ccc(C)cc2)CN(C)C1=O` ; TGI observed: 20.9 µM

// `O=C(O)C1(P(=O)(O)O)CC1` : TGI value = > 100 µM

New cases:
The compound listed as CN1CCCCC1CCN1CCCCC1 (stereo not drawn) has a reported TGI of > 100 µM

Form: compound = `O=C1c2ccccc2-c2c1c1ccc([N+](=O)[O-])cc1c(=O)n2CCCBr` ; TGI = > 100 µM

So for `CCN=C1C=CC(=C(c2ccc(N)cc2)c2ccc(N(CC)CC)c(C)c2)C=C1` , the logged TGI turned out to be 1.66 µM

According to the records, this compound `O=[N+]([O-])c1cccc(-c2nc3sccn3c2-c2ccnc(NCCCNS(=O)(=O)c3cccc(F)c3)n2)c1` displays TGI of 7.64 µM

Lab book: TGI of O=NC1C(Cl)C2CC1C1C(Br)C(Br)CC21 (stereo not drawn) noted as > 100 µM

Entry N#CC(C(=O)CCC(=O)Nc1cccc(Cl)c1)c1ccccc1 (stereo not drawn) — recorded TGI = > 100 µM

// `O=C(NCc1cccnc1)NCc1cccnc1` : TGI value = > 100 µM

Short answer for `O=C(NN1C(=O)CSC12CCCCC2)c1[nH]c2ccc(F)cc2c1-c1ccccc1` : TGI was 70.9 µM

// sample `COC(=O)c1ccc2c(O)c(O)ccc2c1` , its TGI was 28.3 µM

The compound identified as `O=c1oc2ccccc2c(Nc2ccc3c(c2)S(=O)(=O)c2ccccc2O3)c1[N+](=O)[O-]` registered its TGI at 73.5 µM

The compound listed as `CC(=O)Nc1ccccc1SCCSSCCSc1ccccc1NC(C)=O` has a reported TGI of 57.1 µM

Measured TGI of `CCOC(=O)c1oc2ccc(OC)c3c2c1CCC3` : > 100 µM

Value of TGI reported for the compound CC(=O)OCC(OC(C)=O)C(OC(C)=O)C(C=NN(C(C)=O)S(=O)(=O)c1ccc(/C=C2\NC(=O)NC2=O)cc1)OC(C)=O (stereo not drawn) is > 100 µM

###

Item-by-item account of TGI
tested on: MALME-3M melanoma; assay: NCI tumour cell line growth inhibition, 48 h

Reference set, count: 3
Summary for this compound, `Cc1ccc(C2=NOC3=c4ccccc4=CSC3=C2c2ccc([N+](=O)[O-])cc2)cc1` : TGI is 89.5 µM

Entry under test: CC1CC[C@@H](C(C)C)[C@H](Oc2nnc(C3OC(CO)C(O)C3O)o2)C1 (stereo partly specified) . Its TGI was > 100 µM

Reported TGI of `CCOC(=O)C(=O)Nc1c(CC)cccc1C(C)C` : > 100 µM

More entries:
For record CC1C(c2ccccc2)OP(=O)(OC(C#N)c2ccccc2)N1C (stereo unspecified) the listed TGI is > 100 µM

The reported TGI of the compound `CN(C)c1ccc(C=C2C(=O)OC(C)(C)OC2=O)cc1Br` was > 100 µM

Entry `NC(=O)NN=C(CS)CS` ; TGI = 40 µM
